Test: Cynomolgus monkeys: hematology assays (Example 29)
Assay type: in vivo
Settings: day 71
In the oligonucleotide strings, read from the 5' end, every base follows the letter of its sugar. An asterisk marks phosphorothioate; unmarked linkages are phosphodiester. Other units and linkages are bracketed, terminal groups are in braces. A string of capitals states the bases alone. e = 2'-O-(2-methoxyethyl) (MOE); [5mC] = 5-methylcytosine; d = 2'-deoxy (DNA)
# platelet count values compiled below
Please reply with the bare figure in µL⁻¹ and do not write the unit itself.

Reported platelet count for ISIS 416838: gapmer of Table 6 (antisense eG*e[5mC]*eA*eA*e[5mC]*d[5mC]*dG*dG*dG*dA*dT*dG*dA*dT*dG*eA*eG*eT*eG*e[5mC]) : what is it?
365000

Origin of values: patent US20120083522A1
